Cited source for all entries: paper PMC10873556

- Tgt: SP1 (human, UniProt P08047 1-785)
- Sequence (P08047 whole entry): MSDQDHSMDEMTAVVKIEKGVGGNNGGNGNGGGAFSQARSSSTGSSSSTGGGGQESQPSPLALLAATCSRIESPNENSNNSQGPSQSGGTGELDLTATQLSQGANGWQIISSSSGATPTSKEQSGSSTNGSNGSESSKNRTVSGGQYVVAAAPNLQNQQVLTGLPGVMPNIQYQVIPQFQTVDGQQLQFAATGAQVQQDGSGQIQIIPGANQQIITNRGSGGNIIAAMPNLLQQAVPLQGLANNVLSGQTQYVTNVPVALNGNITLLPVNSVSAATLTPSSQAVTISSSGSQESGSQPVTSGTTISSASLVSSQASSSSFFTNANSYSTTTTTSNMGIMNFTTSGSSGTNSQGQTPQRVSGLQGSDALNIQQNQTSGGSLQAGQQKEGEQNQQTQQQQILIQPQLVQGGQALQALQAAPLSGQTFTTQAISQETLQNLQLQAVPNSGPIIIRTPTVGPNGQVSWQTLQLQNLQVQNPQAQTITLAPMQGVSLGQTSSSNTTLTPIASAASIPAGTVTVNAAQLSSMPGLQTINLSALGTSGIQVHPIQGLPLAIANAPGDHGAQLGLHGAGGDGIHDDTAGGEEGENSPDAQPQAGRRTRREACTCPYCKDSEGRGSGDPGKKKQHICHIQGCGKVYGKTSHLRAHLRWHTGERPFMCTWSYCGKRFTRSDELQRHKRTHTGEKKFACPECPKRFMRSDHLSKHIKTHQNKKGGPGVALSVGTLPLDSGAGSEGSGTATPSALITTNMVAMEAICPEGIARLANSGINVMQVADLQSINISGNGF
- Run description: BLI; 100 mM KCl, 12.5 mM MgCl2, 0.01 mM Zn(OAc)2; apparent, most abundant population, 2:1 heterogeneous ligand fit; BLI: 25 mM HEPES pH 7.5, 100 mM KCl, 12.5 mM MgCl2, 20% glycerol, 0.1% Igepal CA-630, 0.01 mM Zn(OAc)2, 1 mM DTT, 3% BSA, temperature not stated; pull-down: oligos annealed in 10 mM Tris-HCl pH 7.4 with (G4) or without (ds) 100 mM KCl
- Conditions used: protein: recombinant; intramolecular G4
pKd: −log10 of the molar value.
Readout type: pKd

1. TTTTTGGGGAGGGTGGGGAGGGTGGGGAAGG (structured_DNA) [MYC G4 ss] = 8.25
